protocol-description: AUC in ddY mouse at 3 mg/kg, po by LC/MS analysis
Format: ADME, organism-based
Set-up: dose 3 mg/kg, route oral
study-conditions: plasma
observed-property: AUC (ng·h/mL)
Quick note: give the figure in ng·h/mL, leave out the unit.

Incoming: Param item = CCc1nnc(-c2ccc(-c3ccccc3)nc2)n1-c1cccc(C#N)c1C (atropisomer R) ; retrieve measured AUC.
Outgoing: 235

###

Reported pIC50 values are given for each entry in this list.
tested-on: Sodium- and chloride-dependent glycine transporter 1 (Rattus norvegicus)
protocol-description: Displacement of [3H]glycine from GlyT1 in rat C6 glioma cells incubated for 30 mins prior to substrate addition measured after 10 mins by scintillation counting analysis
Please report pIC50 as the negative decimal logarithm of the molar concentration, giving only the number.

Take a look at these entries with their results.
CCc1nnc(-c2ccc(-c3ccccc3)cc2)n1-c1cccc(CN(C)C)c1C; 4.54
CCc1nnc(-c2ccc(-c3ccccc3)cc2)n1-c1cccc(CC#N)c1C; 5.55
CCc1nnc(N2CCN(c3ccccc3)CC2)n1-c1ccccc1F; 5.59
CCc1nnc(-c2ccc(-c3ccccc3)cc2)n1-c1cccc(COC)c1C; 5.62
Cc1nnc(-c2ccc(-c3cccnc3)cc2)n1-c1ccccc1F; 5.15
CCc1nnc(-c2ccc(-c3ccccc3)cc2)n1-c1cccc(Br)c1C; 5.66
Cc1nnc(-c2ccc(-c3ccccn3)cc2)n1-c1ccccc1F; 6.07
CCc1nnc(-c2ccc(-c3ccccc3)cc2)n1-c1cccc(N(C)C)c1C; 5.51

Now for a further molecule.
Incoming: Param item = CCc1nnc(-c2ccc(-c3ccccc3)cc2)n1-c1cccc(C(=O)OC)c1C ; retrieve measured pIC50.
Outgoing: 5.29

###

protocol-description: Volume of distribution at steady state in ddY mouse at 1 mg/kg, iv by LC/MS analysis
Type: ADME, organism-based
Set-up: dose 1 mg/kg, route intravenous
study-conditions: in vivo, read-out: Vdss
observed-property: Vd (L/kg)
Quick note: give the figure in L/kg, leave out the unit.

Incoming: Param item = CCc1nnc(-c2ccc(-c3ccccc3)nc2)n1-c1cccc(C#N)c1C (atropisomer R) ; retrieve measured Vd.
Outgoing: 1

###

Reported CLint scaled values are given for each entry in this list.
protocol-description: Intrinsic clearance in ddY mouse liver microsomes by LC-MS/MS analysis
Format: ADME, Microsome
study-conditions: read-out: CLH

CCc1nnc(-c2ccc(-c3ccccc3)cc2)n1-c1cccc(C#N)c1C; > 1000 mL/min/kg
CCc1nnc(-c2ccc(-c3ccccc3)nc2)n1-c1cccc(C#N)c1C (atropisomer R); 787 mL/min/kg

Now for a further molecule.
Incoming: Param item = CCc1nnc(-c2ccc(-c3ccccc3)cc2)n1-c1cccc2cnccc12 ; retrieve measured CLint scaled.
Outgoing: > 1000 mL/min/kg

###

protocol-description: Half life in ddY mouse at 1 mg/kg, iv by LC/MS analysis
Format: ADME, organism-based
Design: dose 1 mg/kg, route intravenous
study-conditions: in vivo
observed-property: half-life (min)
Quick note: give the figure in min, leave out the unit.

Incoming: Param item = CCc1nnc(-c2ccc(-c3ccccc3)nc2)n1-c1cccc(C#N)c1C (atropisomer R) ; retrieve measured half-life.
Outgoing: 13.2

###

protocol-description: AUC in cynomolgus monkey at 3 mg/kg, po by LC/MS analysis
Type: ADME, organism-based, Macaca fascicularis
Design: dose 3 mg/kg, route oral
study-conditions: plasma
observed-property: AUC (ng·h/mL)
Quick note: give the figure in ng·h/mL, leave out the unit.

Incoming: Param item = CCc1nnc(-c2ccc(-c3ccccc3)nc2)n1-c1cccc(C#N)c1C (atropisomer R) ; retrieve measured AUC.
Outgoing: 522

###

protocol-description: Cmax in ddY mouse at 3 mg/kg, po by LC/MS analysis
Type: ADME, organism-based
Parameters: dose 3 mg/kg, route oral
study-conditions: in vivo
observed-property: Cmax
Remember to quote the unit after the number.

Incoming: Param item = CCc1nnc(-c2ccc(-c3ccccc3)nc2)n1-c1cccc(C#N)c1C (atropisomer R) ; retrieve measured Cmax.
Outgoing: 319 ng/mL

###

protocol-description: Oral bioavailability in cynomolgus monkey at 3 mg/kg by LC/MS analysis
Assay type: ADME, organism-based, Macaca fascicularis
study-conditions: in vivo
observed-property: bioavailability (%)
Quick note: give the figure in %, leave out the unit.

Incoming: Param item = CCc1nnc(-c2ccc(-c3ccccc3)nc2)n1-c1cccc(C#N)c1C (atropisomer R) ; retrieve measured bioavailability.
Outgoing: 23

###

Tested on: LLC-PK1
protocol-description: Apparent permeability from apical to basolateral side in pig LLC-PK1 cells expressing MDR1 after 2 hrs by LC-MS/MS analysis
Type: ADME, cell-based, Sus scrofa
study-conditions: llc-pk1, 2 h, 2 h
observed-property: Papp (×10⁻⁶ cm/s)
Quick note: give the figure in ×10⁻⁶ cm/s, leave out the unit.

Incoming: Param item = CCc1nnc(-c2ccc(-c3ccccc3)nc2)n1-c1cccc(C#N)c1C (atropisomer R) ; retrieve measured Papp.
Outgoing: 35.4

###

protocol-description: Aqueous solubility of the compound at pH 6.8 after 20 hrs by HPLC analysis
Format: physicochemical
study-conditions: buffer, pH 6.8
observed-property: solubility at 20 h (µM)
Quick note: give the figure in µM, leave out the unit.

Take a look at these entries with their results.
CCc1nnc(-c2ccc(-c3ccccc3)cc2)n1-c1cccc2cnccc12; 5
CCc1nnc(-c2ccc(-c3ccccc3)nc2)n1-c1cccc(C#N)c1C (atropisomer S); 94

Incoming: Param item = CCc1nnc(-c2ccc(-c3ccccc3)nc2)n1-c1ccccc1F ; retrieve measured solubility at 20 h.
Outgoing: 31

###

protocol-description: Lipophilicity, log D of the compound at pH 7.4
Format: physicochemical
study-conditions: buffer
Reported logD values are given for each entry in this list.
Keep the answer to the number alone.

Take a look at these entries with their results.
CCc1nnc(-c2ccc(-c3ccccc3)cc2)n1-c1cccc(C#N)c1C; 4.1
CCc1nnc(-c2ccc(-c3ccccc3)nc2)n1-c1cccc(C#N)c1C (atropisomer R); 3

Now for a further compound.
Incoming: Param item = CCc1nnc(-c2ccc(-c3ccccc3)cc2)n1-c1cccc2cnccc12 ; retrieve measured logD.
Outgoing: 4.1

###

Reported pIC50 values are given for each entry in this list.
tested-on: Sodium- and chloride-dependent glycine transporter 1 (Rattus norvegicus, UniProt P28572)
Sequence (P28572 whole entry): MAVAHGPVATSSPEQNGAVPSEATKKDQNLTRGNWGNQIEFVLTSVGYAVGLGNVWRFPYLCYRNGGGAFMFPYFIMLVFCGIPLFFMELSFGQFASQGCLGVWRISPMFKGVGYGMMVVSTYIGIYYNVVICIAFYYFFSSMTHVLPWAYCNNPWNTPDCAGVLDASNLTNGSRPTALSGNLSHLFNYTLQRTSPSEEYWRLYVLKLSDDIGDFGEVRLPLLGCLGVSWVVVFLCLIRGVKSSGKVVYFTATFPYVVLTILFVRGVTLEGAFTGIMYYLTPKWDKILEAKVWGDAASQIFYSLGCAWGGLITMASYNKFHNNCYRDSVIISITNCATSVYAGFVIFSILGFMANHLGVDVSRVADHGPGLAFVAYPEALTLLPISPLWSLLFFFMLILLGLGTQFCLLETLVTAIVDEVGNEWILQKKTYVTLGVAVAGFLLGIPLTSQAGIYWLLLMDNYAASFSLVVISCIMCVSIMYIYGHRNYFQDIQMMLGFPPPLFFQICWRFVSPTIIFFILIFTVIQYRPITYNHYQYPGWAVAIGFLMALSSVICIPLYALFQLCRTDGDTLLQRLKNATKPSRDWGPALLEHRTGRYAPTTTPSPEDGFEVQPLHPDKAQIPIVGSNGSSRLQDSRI
protocol-description: Displacement of [3H]glycine from GlyT1 in rat C6 glioma cells incubated for 30 mins prior to substrate addition measured after 10 mins by scintillation counting analysis
Please report pIC50 as the negative decimal logarithm of the molar concentration, giving only the number.

CCc1nnc(-c2ccc(-c3ccccc3)cc2)n1-c1cccc(Cl)c1C; 5.66
Cc1nnc(-c2ccc(-c3ccncc3)cc2)n1-c1ccccc1F; 5.23
CCc1nnc(N2CCC(c3ccccc3)CC2)n1-c1ccccc1F; 5.43
CCc1nnc(C2CCN(c3ccccc3)CC2)n1-c1ccccc1F; 5.18

Now for a further compound.
Incoming: Param item = CCc1nnc(-c2ccc(-c3ccccc3)cc2)n1-c1cccc(C(N)=O)c1C ; retrieve measured pIC50.
Outgoing: 5.41

###

protocol-description: Plasma clearance in cynomolgus monkey at 1 mg/kg, iv by LC/MS analysis
Assay type: ADME, organism-based, Macaca fascicularis
Parameters: dose 1 mg/kg, route intravenous
observed-property: clearance (mL/min/kg)
Quick note: give the figure in mL/min/kg, leave out the unit.

Incoming: Param item = CCc1nnc(-c2ccc(-c3ccccc3)nc2)n1-c1cccc(C#N)c1C (atropisomer R) ; retrieve measured clearance.
Outgoing: 21

###

protocol-description: AUC in cynomolgus monkey at 1 mg/kg, iv by LC/MS analysis
Format: ADME, organism-based, Macaca fascicularis
Set-up: dose 1 mg/kg, route intravenous
study-conditions: plasma
observed-property: AUC (ng·h/mL)
Quick note: give the figure in ng·h/mL, leave out the unit.

Incoming: Param item = CCc1nnc(-c2ccc(-c3ccccc3)nc2)n1-c1cccc(C#N)c1C (atropisomer R) ; retrieve measured AUC.
Outgoing: 875

###

protocol-description: Intrinsic clearance in human liver microsomes after 30 mins by LC-MS/MS analysis
Assay type: ADME, Microsome
study-conditions: read-out: CLH
observed-property: CLint scaled (mL/min/kg)
Quick note: give the figure in mL/min/kg, leave out the unit.

Take a look at these entries with their results.
CCc1nnc(-c2ccc(-c3ccccc3)cc2)n1-c1cccc2cnccc12; 374
CCc1nnc(-c2ccc(-c3ccccc3)cc2)n1-c1cccc(C#N)c1C; 126

Incoming: Param item = CCc1nnc(-c2ccc(-c3ccccc3)nc2)n1-c1cccc(C#N)c1C (atropisomer R) ; retrieve measured CLint scaled.
Outgoing: 55

###

protocol-description: Half life in cynomolgus monkey at 1 mg/kg, iv by LC/MS analysis
Assay type: ADME, organism-based, Macaca fascicularis
Set-up: dose 1 mg/kg, route intravenous
study-conditions: in vivo
observed-property: half-life (h)
Quick note: give the figure in h, leave out the unit.

Incoming: Param item = CCc1nnc(-c2ccc(-c3ccccc3)nc2)n1-c1cccc(C#N)c1C (atropisomer R) ; retrieve measured half-life.
Outgoing: 2.4

###

System: MDR1
protocol-description: Apparent permeability from apical to basolateral side in pig LLC-PK1 cells expressing MDR1 after 2 hrs by LC-MS/MS analysis
Type: ADME, cell-based, Sus scrofa
study-conditions: LLC-PK1
observed-property: Papp A→B at 2 h

CCc1nnc(-c2ccc(-c3ccccc3)cc2)n1-c1cccc(C#N)c1C; 275 nm/s
CCc1nnc(-c2ccc(-c3ccccc3)cc2)n1-c1cccc2cnccc12; 256 nm/s

Now for a further molecule.
Incoming: Give recorded Papp A→B at 2 h with MDR1 for the following molecule: CCc1nnc(-c2ccc(-c3ccccc3)nc2)n1-c1cccc(C#N)c1C
Outgoing: 296 nm/s

The values you see were collected from ChEMBL document CHEMBL2417446.
